All figures here come from patent US5278186A.

Target or test system: Acyl-CoA : cholesterol acyltransferase (ACAT) (Rattus norvegicus, UniProt Q7TQM4)
Construct: from the mucosal microsome fraction of the small intestine; from tissue; host or cells: small intestine mucosa (microsome fraction), Sprague-Dawley rat
Sequence (Q7TQM4 1-524): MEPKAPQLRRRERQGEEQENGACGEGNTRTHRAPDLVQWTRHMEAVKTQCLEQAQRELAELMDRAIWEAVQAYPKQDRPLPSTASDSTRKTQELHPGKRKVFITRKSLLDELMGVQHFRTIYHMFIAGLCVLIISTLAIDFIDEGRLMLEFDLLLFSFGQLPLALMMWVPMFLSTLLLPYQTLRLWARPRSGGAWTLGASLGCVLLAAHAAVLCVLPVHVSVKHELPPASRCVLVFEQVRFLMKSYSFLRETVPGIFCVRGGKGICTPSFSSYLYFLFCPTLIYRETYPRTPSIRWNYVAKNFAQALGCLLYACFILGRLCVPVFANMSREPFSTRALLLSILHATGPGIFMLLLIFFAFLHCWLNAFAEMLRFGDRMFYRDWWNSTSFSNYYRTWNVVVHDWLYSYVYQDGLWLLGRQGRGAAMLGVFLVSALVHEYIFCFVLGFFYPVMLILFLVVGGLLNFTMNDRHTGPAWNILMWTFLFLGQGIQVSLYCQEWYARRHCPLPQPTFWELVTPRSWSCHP
Method description: Acyl-CoA : cholesterol acyltransferase (ACAT) inhibitory activity
Format: biochemical
Protocol conditions: 10^-8 M; mucosal microsome fraction of small intestine of male 6-week old fasted Sprague-Dawley rats; labeled cholesterol ester from [1^14 C] oleoyl-CoA; read-out: ACAT Inhibition Rate (%) 10^-8 M
Parameter: inhibition at 0.01 µM (%)
Numbers only, in %.

The examples below pair each entry with its known result.
{"columns": ["Smiles code", "inhibition at 0.01 µM [%]"],
 "data": [
  ["Cc1ccc2oc(=O)c(NC(=O)Nc3ccc(F)cc3F)c(-c3ccccc3C)c2c1", 42.7],
  ["Cc1ccc2oc(=O)c(NC(=O)Nc3ccc(F)cc3F)c(-c3ccccc3Cl)c2c1", 56.1],
  ["Cc1cc2oc(=O)c(NC(=O)Nc3ccc(Cl)cc3)c(-c3ccccc3C)c2cc1C", 69.7],
  ["Cc1cc2oc(=O)c(NC(=O)Nc3ccc(F)cc3F)c(-c3ccccc3Cl)c2cc1C", 86.7],
  ["Cc1cc2oc(=O)c(NC(=O)Cc3ccc(F)cc3F)c(-c3ccccc3C)c2cc1Cl", 34.3]
]}

Here are 3 compounds. What values of inhibition at 0.01 µM were reported for them?
1. Cc1cc2oc(=O)c(NC(=O)Nc3ccc(F)cc3F)c(-c3ccccc3C)c2cc1Cl
2. Cc1cc2c(-c3ccccc3C)c(NC(=O)Nc3ccc(F)cc3F)c(=O)oc2cc1Cl
3. CCc1ccc2oc(=O)c(NC(=O)Nc3ccc(F)cc3F)c(-c3ccccc3C)c2c1

Response:
1. 81.7
2. 84.2
3. 45.9

====

Target or test system: Acyl-CoA : cholesterol acyltransferase (ACAT) (Rattus norvegicus, UniProt Q7TQM4)
Construct: from the mucosal microsome fraction of the small intestine; from tissue; host or cells: small intestine mucosa (microsome fraction), Sprague-Dawley rat
Method description: Acyl-CoA : cholesterol acyltransferase (ACAT) inhibitory activity
Assay type: biochemical
Protocol conditions: 10^-6 M; mucosal microsome fraction of small intestine of male 6-week old fasted Sprague-Dawley rats; labeled cholesterol ester from [1^14 C] oleoyl-CoA; read-out: ACAT Inhibition Rate (%) 10^-6 M
I'd appreciate it if you could supply inhibition at 1 µM values for the items below.
One number for each entry, in %.

Known results for molecules:
{"columns": ["Molecule", "Unit label", "inhibition at 1 µM"],
 "data": [
  ["CC(C)c1ccc2oc(=O)c(NC(=O)Nc3ccc(F)cc3F)c(-c3ccc(F)cc3)c2c1 [Example 30]", "%", 90.2],
  ["Cc1ccccc1-c1c(NC(=O)Nc2ccc(F)cc2F)c(=O)oc2ccc(C(C)C)cc12 [Example 2]", "%", 99]
]}

For each of the molecules below, state inhibition at 1 µM.
1. Cc1cc2oc(=O)c(NC(=O)Nc3ccc(F)cc3F)c(-c3ccccc3C)c2cc1C [Example 3]
2. Cc1cc2oc(=O)c(NC(=O)c3ccc(F)cc3F)c(-c3ccccc3C)c2cc1Cl [Example 29]

Response:
1. 99.2
2. 95.4

====

Target or test system: Acyl-CoA : cholesterol acyltransferase (ACAT) (Rattus norvegicus)
Construct: from the mucosal microsome fraction of the small intestine; from tissue; host or cells: small intestine mucosa (microsome fraction), Sprague-Dawley rat
Method description: Acyl-CoA : cholesterol acyltransferase (ACAT) inhibitory activity
Type: biochemical
Protocol conditions: 10^-6 M; mucosal microsome fraction of small intestine of male 6-week old fasted Sprague-Dawley rats; labeled cholesterol ester from [1^14 C] oleoyl-CoA; read-out: ACAT Inhibition Rate (%) 10^-6 M
Field: inhibition at 1 µM. Provide a value for each of the molecules that follow.
Reply with the number, then its unit.

See these solved cases before continuing.
{"columns": ["Molecule", "Measured value"],
 "data": [
  ["COc1cc(NC(=O)Nc2c(-c3ccccc3C)c3cc(C)c(C)cc3oc2=O)cc(OC)c1OC(C)=O [Example 25]", "98.8%"],
  ["COc1cc(NC(=O)Nc2c(-c3ccccc3Cl)c3cc(C)ccc3oc2=O)cc(OC)c1OC(C)=O [Example 24]", "98.6%"],
  ["Cc1cc2oc(=O)c(NC(=O)Nc3cccc(C(F)(F)F)c3)c(-c3ccccc3C)c2cc1Cl [Example 20]", "84.8%"]
]}

Dear colleague, could you send me inhibition at 1 µM for each of the items below? Thanks.
1. CC(=O)Oc1c(C)cc(NC(=O)Nc2c(-c3ccccc3C)c3cc(Cl)c(C)cc3oc2=O)cc1C [Example 27]
2. COc1cc(NC(=O)Nc2c(-c3ccccc3C)c3cc(Cl)c(C)cc3oc2=O)cc(OC)c1OC(C)=O [Example 26]
3. Cc1cc2sc(=O)c(NC(=O)Nc3ccc(F)cc3F)c(-c3ccccc3C)c2cc1Cl [Example 22]
4. COc1cc(C=CC(=O)Nc2c(-c3ccccc3C)c3cc(Cl)c(C)cc3oc2=O)cc(OC)c1OC(C)=O [Example 19]
5. Cc1ccccc1-c1c(NC(=O)Nc2ccc(F)cc2F)c(=O)oc2ccc(Cl)cc12 [Example 1]

Response:
1. 99.1%
2. 98.5%
3. 97%
4. 92.3%
5. 99%
